Target: human M1 receptor (Homo sapiens, UniProt P11229)
Sequence (P11229 1-460): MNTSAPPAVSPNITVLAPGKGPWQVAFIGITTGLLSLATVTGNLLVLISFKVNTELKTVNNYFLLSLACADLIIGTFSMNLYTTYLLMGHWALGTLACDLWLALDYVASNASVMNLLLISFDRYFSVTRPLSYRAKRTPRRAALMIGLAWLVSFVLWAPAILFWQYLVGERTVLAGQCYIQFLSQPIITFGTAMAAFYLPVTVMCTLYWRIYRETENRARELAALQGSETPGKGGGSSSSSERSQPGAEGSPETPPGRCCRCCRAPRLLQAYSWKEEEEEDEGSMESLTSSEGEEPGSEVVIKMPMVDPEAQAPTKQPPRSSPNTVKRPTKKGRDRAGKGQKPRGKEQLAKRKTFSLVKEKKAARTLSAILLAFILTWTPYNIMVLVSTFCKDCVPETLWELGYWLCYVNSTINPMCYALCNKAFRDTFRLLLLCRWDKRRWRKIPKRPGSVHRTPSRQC
Assay: In vitro functional assay of muscarinic acetylcholine receptor activity (aequorin calcium flux, antagonist mode vs EC80 acetylcholine), M1
Assay type: cell-based
Conditions: CHO-K1 cells stably expressing human M1 receptor with Aequorin; decrease in EC80 acetylcholine response; read-out: M1 IC50
pIC50: −log10 of the molar value.
quantity: pIC50

* C[C@H]1CN(c2cnc(C(F)(F)F)nc2)CCN1C(=O)CCS(=O)(=O)c1cccc2ncsc12 | < 5.00
* Cc1ncccc1N1CCN(C(=O)CCCc2cccc3ncccc23)[C@@H](C)C1 | < 5.00
* Cc1cc(C(F)(F)F)ncc1N1CCN(C(=O)CCS(=O)(=O)c2cccc3ncsc23)[C@@H](C)C1 | > 7.00
* N#Cc1ccc(C2=CC3CCC2CN3C(=O)CCS(=O)(=O)c2cccc3ncsc23)nc1 (centres unmarked) | > 7.00
* COc1cc(N2CCN(C(=O)CCCc3cccc4ncccc34)CC2)ccn1 | 6.00 to 7.00
* N#Cc1ccc(N2CC3CCC2CN3C(=O)CCS(=O)(=O)c2cccc3ncsc23)nc1 (centres unmarked) | > 7.00
* O=C(COCc1cccc2nccn12)N1C[C@H]2CC[C@@H](C1)N2c1ccncc1F | 5.00 to 6.00
* N#Cc1cc(N2CCN(C(=O)CCCc3cccc4ncccc34)CC2)ccn1 | > 7.00
* C[C@@H]1CN(c2ccncc2Cl)CCN1C(=O)CCCc1cccc2ncccc12 | > 7.00
* Cc1nc2cccc(S(=O)(=O)CCC(=O)N3CCN(c4ccc(C(F)(F)F)cn4)CC3)c2o1 | 5.00 to 6.00
* O=C([C@H]1C[C@H](Oc2cccc3ncsc23)C1)N1CC2CCC(C1)N2c1ncc(Cl)cn1 | < 5.00
* Cc1cc(F)cnc1N1CCN(C(=O)COCc2cccc3ncsc23)[C@@H](C)C1 | 5.00 to 6.00
* Cc1nc2cccc(S(=O)(=O)CCCC(=O)N3CCN(c4ncc(F)cc4C)C[C@@H]3C)c2o1 | 5.00 to 6.00
* O=C(CCNCc1cccc2ncccc12)N1C[C@H]2CC[C@@H](C1)N2c1ccncc1F | 5.00 to 6.00
* Cc1nc2cccc(CCCC(=O)N3CCN(c4ccncc4F)CC3)c2o1 | 6.00 to 7.00
* Cc1cc(N2C3CCC2CN(C(=O)[C@H]2C[C@H](Oc4cccc5ncsc45)C2)C3)ccn1 | 5.00 to 6.00
* N#Cc1ccc(N2CC3CCC2CN3C(=O)CCNCc2cccc3ncsc23)nc1 (centres unmarked) | 6.00 to 7.00

====

# maps each entry to its IC50
target: M2 (Homo sapiens, UniProt P08172); assay: In vitro functional assay of muscarinic acetylcholine receptor activity, M2; assay type: cell-based; conditions: antagonist IC50 at M2; read-out: M2 IC50
Sequence (P08172 whole entry): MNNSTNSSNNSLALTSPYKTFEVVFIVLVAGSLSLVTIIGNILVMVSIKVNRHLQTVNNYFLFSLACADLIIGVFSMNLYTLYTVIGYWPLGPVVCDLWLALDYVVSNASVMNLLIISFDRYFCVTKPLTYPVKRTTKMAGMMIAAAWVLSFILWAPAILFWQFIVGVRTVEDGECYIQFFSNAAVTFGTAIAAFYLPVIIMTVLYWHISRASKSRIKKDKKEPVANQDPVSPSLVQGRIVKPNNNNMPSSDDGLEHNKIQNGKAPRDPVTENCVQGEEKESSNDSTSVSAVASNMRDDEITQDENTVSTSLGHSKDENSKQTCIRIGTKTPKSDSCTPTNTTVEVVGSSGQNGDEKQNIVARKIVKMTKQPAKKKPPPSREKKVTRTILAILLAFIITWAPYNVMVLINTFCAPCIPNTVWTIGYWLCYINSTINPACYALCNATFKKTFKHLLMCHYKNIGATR
quantity: IC50

* N#Cc1ccc(N2C3CCC2CN(C(=O)CCNCc2cccc4ncccc24)C3)nc1 | > 10000 nM
* CC1CN(c2ccc(C#N)cn2)CC(C)N1C(=O)CCS(=O)(=O)c1cccc2ncsc12 (centres unmarked) | > 10000 nM
* O=C(CCS(=O)(=O)c1cccc2nccn12)N1CC2CCC(C1)N2c1ccc(Cl)cn1 | 1000 to 10000 nM
* O=C(CCCc1cccc2ncccc12)N1C[C@H]2C[C@@H]1CN2c1ccc(F)cn1 (racemic) | 1000 to 10000 nM
* O=C(CCS(=O)(=O)c1cccc2ncsc12)N1CC=C(c2ccc(C(F)(F)F)cn2)CC1 | 1000 to 10000 nM
* N#Cc1cc(N2C3CCC2CN(C(=O)CCNCc2cccc4ncsc24)C3)ccn1 | 1000 to 10000 nM
* CN(CCC(=O)N1CC2CCC(C1)N2c1ccc(C#N)cn1)Cc1cccc2ncnn12 | 1000 to 10000 nM
* O=C(CCNCc1cccc2ncnn12)N1CC2CCC(C1)N2c1ccc(-c2ccccc2)cn1 | > 10000 nM
* O=C(CCOCc1cccc2cnccc12)N1C[C@H]2CC[C@@H](C1)N2c1ccc(F)cn1 | 1000 to 10000 nM
* O=C(C1CN(Cc2cccc3ncsc23)C1)N1C[C@H]2CC[C@@H](C1)N2c1ccncc1F | > 10000 nM
* Cc1cc(F)cnc1N1CC(C)N(C(=O)CCS(=O)(=O)c2cccc3ncsc23)C[C@H]1C (some centres unmarked) | 100 to 1000 nM
* Cc1cc(F)cnc1N1CCN(C(=O)CNCc2cccc3ncsc23)[C@@H](C)C1 | > 10000 nM
* N#Cc1ccc(N2C3CCC2CN(C(=O)CCS(=O)(=O)c2cccc4ncsc24)C3)cn1 | 100 to 1000 nM
* Cc1cc(C#N)cnc1N1CCN(C(=O)CCS(=O)(=O)c2cccc3ncsc23)[C@@H](C)C1 | 100 to 1000 nM
* Cc1cc(F)cnc1N1CCN(C(=O)CCCc2cccc3ncoc23)[C@@H](C)C1 | 1000 to 10000 nM
* N#Cc1ccc(N2C3CCC2CN(C(=O)CNCCc2cccc4ncsc24)C3)nc1 | 1000 to 10000 nM
* O=C(CCS(=O)(=O)c1cccc2nccn12)N1CC2CCC(C1)N2c1ccc(C(F)(F)F)cn1 | 1000 to 10000 nM
* Cc1nc2cccc(S(=O)(=O)CCCC(=O)N3CCN(c4ncc(F)cc4C)C[C@@H]3C)c2o1 | 1000 to 10000 nM
* O=C(CCS(=O)(=O)c1cccc2ncsc12)N1CCC(c2ccc(C(F)(F)F)cn2)CC1 | 1000 to 10000 nM
* CC1CN(c2ccncc2)CCN1C(=O)CCCc1cccc2ncccc12 (centres unmarked) | 100 to 1000 nM
* Cc1cc(C#N)ncc1N1CCN(C(=O)CCS(=O)(=O)c2cccc3ncsc23)[C@@H](C)C1 | 100 to 1000 nM
* O=C(CCS(=O)(=O)c1cccc2nccn12)N1CCN(c2ccc(C(F)(F)F)cn2)CC1 | 1000 to 10000 nM
* N#Cc1ccc(N2C3CCC2CN(C(=O)N2CC(=Cc4cccc5ncccc45)C2)C3)nc1 | 1000 to 10000 nM
* O=C(COCCc1cccc2ncccc12)N1C[C@H]2CC[C@@H](C1)N2c1ccncc1F | 1000 to 10000 nM
* N#Cc1ccc(N2[C@@H]3CC[C@H]2CN(C(=O)COCc2cccc4nccnc24)C3)nc1 | 100 to 1000 nM
* COc1cc(N2CCN(C(=O)CCCc3cccc4ncccc34)CC2)ccn1 | > 10000 nM
* N#Cc1ccc(N2[C@@H]3CC[C@H]2CN(C(=O)[C@H]2C[C@H](Nc4cccc5ncccc45)C2)C3)nc1 | 1000 to 10000 nM
* O=C(CCS(=O)(=O)c1cccc2ncsc12)N1CCN(c2ncc(C(F)(F)F)cn2)CC1 | > 10000 nM
* N#Cc1cc(N2C3CCC2CN(C(=O)CCS(=O)(=O)c2cccc4nccn24)C3)ccc1F | 1000 to 10000 nM
* Cc1cc(F)cnc1N1CCN(C(=O)CCCc2cccc3ncc(CO)cc23)[C@@H](C)C1 | 100 to 1000 nM
* O=C(CCS(=O)(=O)c1cccc2ncsc12)N1CCN(c2ccnc(C(F)(F)F)c2)CC1 | 1000 to 10000 nM
* Cc1nc2cccc(CNCCC(=O)N3CC4CCC(C3)N4c3ccc(C#N)cn3)n2n1 | 1000 to 10000 nM

====

target: human M1 receptor (Homo sapiens, UniProt P11229); test: In vitro functional assay of muscarinic acetylcholine receptor activity (aequorin calcium flux, antagonist mode vs EC80 acetylcholine), M1; type: cell-based
Overview of recorded IC50 for various molecules
quantity: IC50

* O=C(CCNCc1cccc2ncnn12)N1CC2CCC(C1)N2c1ccc(Cl)cn1 | < 100 nM
* N#Cc1ccc(N2C3CCC2CN(C(=O)CCOCc2cccn4ncnc24)C3)nc1 | < 100 nM
* O=C(CCS(=O)(=O)c1cccc2nccn12)N1C[C@H]2CC[C@@H](C1)N2c1ccncc1F | < 100 nM
* N#Cc1ccc(N2C3CCC2CN(C(=O)C2CC(Cc4cccc5ncsc45)C2)C3)nc1 (centres unmarked) | < 100 nM
* N#Cc1ccc(N2C3CCC2CN(C(=O)N2CC(=Cc4cccc5ncccc45)C2)C3)nc1 | 100 to 1000 nM
* Cc1nc2cccc(CNCC(=O)N3C[C@H]4CC[C@@H](C3)N4c3ccncc3F)c2o1 | 100 to 1000 nM
* N#Cc1ccc(N2C3CCC2CN(C(=O)COCc2cccn4ncnc24)C3)nc1 | < 100 nM
* N#Cc1ccc(N2C3CCC2CN(C(=O)CCNCc2c(F)ccc4ncnn24)C3)nc1 | < 100 nM
